Target: Human indoleamine 2,3-dioxygenasae (IDO) (Homo sapiens, UniProt P14902)
Sequence (P14902 whole entry): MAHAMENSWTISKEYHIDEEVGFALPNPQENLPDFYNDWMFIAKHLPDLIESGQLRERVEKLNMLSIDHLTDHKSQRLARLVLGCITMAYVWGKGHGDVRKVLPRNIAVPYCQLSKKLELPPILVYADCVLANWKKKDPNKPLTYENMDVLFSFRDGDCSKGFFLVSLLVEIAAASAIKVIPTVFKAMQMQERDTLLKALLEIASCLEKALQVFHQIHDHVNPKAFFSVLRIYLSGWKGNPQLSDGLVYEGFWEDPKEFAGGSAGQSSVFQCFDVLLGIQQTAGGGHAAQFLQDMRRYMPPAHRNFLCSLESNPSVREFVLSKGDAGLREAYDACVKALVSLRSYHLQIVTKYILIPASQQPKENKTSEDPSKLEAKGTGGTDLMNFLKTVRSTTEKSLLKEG
pIC50: −log10 of the molar value.

compound	pIC50
N#Cc1cc(NC(=NO)c2ccoc2)ccc1F [Example 12]	< 5.00
